test system: biotinyl-Trp-oxazolone; test: self-aminoacylation, catalytic enhancement (BWO) (fold over background); higher = more active; k-Seq, kA / k0A0; sequences stand for … in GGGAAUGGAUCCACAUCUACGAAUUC…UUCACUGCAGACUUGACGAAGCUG
Fewer inactive variants are shown than the library holds.
// self-aminoacylation lookup, one value per entry

[
  {
    "entry.sequence": "CUACUUCAGCCAAUCGGUCUG [Fam1A.1 aminoacylation ribozyme variant]",
    "self-aminoacylation": 0.425
  },
  {
    "entry.sequence": "AUUACCCCGGUCAUCGAGAGA [Fam2.1 aminoacylation ribozyme variant]",
    "self-aminoacylation": 1.07
  },
  {
    "entry.sequence": "CUACUUCAAACAAUCGGUGGG [Fam1A.1 aminoacylation ribozyme variant]",
    "self-aminoacylation": 0.856
  },
  {
    "entry.sequence": "AUUCACCUAGGUCAUGGGGUG [Fam2.2 aminoacylation ribozyme variant]",
    "self-aminoacylation": 5.27
  },
  {
    "entry.sequence": "CUCCUUCAAACAAUCGGACUG [Fam1A.1 aminoacylation ribozyme variant]",
    "self-aminoacylation": 8.83
  },
  {
    "entry.sequence": "AUUCACCUAGUACAUCGGGUG [Fam2.2 aminoacylation ribozyme variant]",
    "self-aminoacylation": 2.21
  },
  {
    "entry.sequence": "CUUACCCUGGUCUUCGAGUGA [Fam2.1 aminoacylation ribozyme variant]",
    "self-aminoacylation": 5
  },
  {
    "entry.sequence": "CCACACUUAAAGCAAUCGGCC [Fam1B.1 aminoacylation ribozyme variant]",
    "self-aminoacylation": 1.7
  },
  {
    "entry.sequence": "AAUCACCUAGGUCAUCGGGUG [Fam2.2 aminoacylation ribozyme variant]",
    "self-aminoacylation": 8.58
  }
]
